The origin of these recorded values is paper PMC11850406.

# ASSAYED TARGET: HLA-A3001 (Homo sapiens, UniProt P04439, D140H/D185E/E176W/F33S/G80R/H175R/K168Q/R138E/R41S)
# Construct: expressed in transfected cells; host or cells: HMy2.CIR
# PROTOCOL SUMMARY: cell-based
# Format: binding
Where no end group is shown, it is not given here.
Please provide measured IC50 for the entries that follow.

Use these answered entries as a reference point.
# SEQUENCE TEXT, IC50
measured = [
    ("RVRQGYSPL [Peptide P91]", "< 5 µM"),
    ("KLAGRWPVK [Peptide P95]", "< 5 µM"),
]

Now for the sequence whose IC50 we want.
Find the recorded IC50 belonging to ASRELERFA [Peptide P90] and report it.
5 to 15 µM

---

# ASSAYED TARGET: HLA-A2402 (Homo sapiens, UniProt P04439, D101N/D140Y/D185E/E176V/E190D/F33S/G103R/G107R/I119L/I121M/I306V/K335N/L105A/L180Q/L300P/N151K/N90K/Q86E/Q94H/R106L/R138H/R89G/T104I/T345S/V100E/W191G/Y123F)
# PROTOCOL SUMMARY: cell-based
# Assay type: binding
# RUN PARAMETERS: A2402; peptide 15 μM vs FITC-labeled reference peptide 300 nM, 24 h, 4°C, flow cytometry
Where no end group is shown, it is not given here.
Record rule met whenever inhibition at 15 µM is at 60% or higher; record rule not met when lower.

Previously resolved entries follow.
# SEQUENCE TEXT, GROUP LABEL
records = [
    ("PYNTPVFAI [Peptide P63]", "rule not met"),
    ("YWQATWIPEW [Peptide P60]", "rule met"),
    ("NYTNQIYEI [Peptide P47]", "rule met"),
    ("VQMAVFIHNF [Peptide P64]", "rule not met"),
    ("TYQIYQEPF [Peptide P58]", "rule met"),
]

Given the entry MYSPTSILDI [Peptide P52] , answer whether its inhibition at 15 µM meets or surpasses 60%.
rule met

Please check the record FYCNTSGLF [Peptide P46] and state if its inhibition at 15 µM is at or above 60%.
rule met

---

Kindly supply the reported pIC50 values for the records listed here.
# ASSAYED TARGET: HLA-A3303 (Homo sapiens, UniProt P04439, A270S/D185E/E176V/E277Q/E87N/F33T/G231S/H175R/I121M/I218V/I322F/K168Q/L300P/L318F/M331R/P217A/Q86R/Q94H/R138Q/T323A/T345S/T97I/V358M)
# PROTOCOL SUMMARY: Peptide competitive binding assay, HMy2.CIR cells expressing A3303
# RUN PARAMETERS: A3303; class from inhibition at 5 and 15 μM of FITC-labeled reference peptide binding; read-out: Affinity
pIC50: −log10 of the molar value. Where no end group is shown, it is not given here.

# SEQUENCE TEXT, RESULT
rows = [
    ("ATLWCVHQR [Peptide P34]", "> 5.30"),
    ("MAHQPLSPR [Peptide P111]", "> 5.30"),
]

Field: next sequence
Item MYAPPISGR [Peptide P106] has what recorded pIC50?
> 5.30
